The measured values listed here are drawn from ChEMBL document CHEMBL3886684.

- tgt: Serine/threonine-protein kinase pim-2 (Homo sapiens, UniProt Q9P1W9)
- Sequence (Q9P1W9 whole entry): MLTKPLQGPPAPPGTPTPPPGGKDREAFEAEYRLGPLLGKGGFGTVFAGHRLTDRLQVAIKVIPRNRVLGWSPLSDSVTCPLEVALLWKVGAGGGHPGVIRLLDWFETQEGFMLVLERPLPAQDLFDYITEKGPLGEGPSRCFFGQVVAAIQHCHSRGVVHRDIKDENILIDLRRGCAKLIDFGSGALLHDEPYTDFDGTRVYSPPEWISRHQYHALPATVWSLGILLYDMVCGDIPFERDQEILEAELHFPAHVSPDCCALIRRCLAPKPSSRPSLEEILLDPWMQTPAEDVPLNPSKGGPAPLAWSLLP
- protocol.text: The phosphorylation of biotinylated-BAD (S112) peptide by full length recombinant Pim-1, Pim-2, or Pim-3 protein was detected with streptavidin:Allophycocyanin (APC) conjugate and a europium (Eu) labeled antibody directed against phosphorylated-BAD (S112). […] A reference compound was included on each assay plate in order to validate that plate; on
endpoint.name: IC50 (µM)
Write the answer as a number in µM, unit excluded.

INPUT: # get_value(readout= IC50, system= Serine/threonine-protein kinase pim-2 (Homo sapiens, UniProt Q9P1W9)) for CC(C)(C)Nc1nnc(-c2ccc3[nH]cc(C4=CCOCC4)c3c2)o1
OUTPUT: 0.738
